Molecular target: UniProtKB P19327
Sequence (P19327 whole entry): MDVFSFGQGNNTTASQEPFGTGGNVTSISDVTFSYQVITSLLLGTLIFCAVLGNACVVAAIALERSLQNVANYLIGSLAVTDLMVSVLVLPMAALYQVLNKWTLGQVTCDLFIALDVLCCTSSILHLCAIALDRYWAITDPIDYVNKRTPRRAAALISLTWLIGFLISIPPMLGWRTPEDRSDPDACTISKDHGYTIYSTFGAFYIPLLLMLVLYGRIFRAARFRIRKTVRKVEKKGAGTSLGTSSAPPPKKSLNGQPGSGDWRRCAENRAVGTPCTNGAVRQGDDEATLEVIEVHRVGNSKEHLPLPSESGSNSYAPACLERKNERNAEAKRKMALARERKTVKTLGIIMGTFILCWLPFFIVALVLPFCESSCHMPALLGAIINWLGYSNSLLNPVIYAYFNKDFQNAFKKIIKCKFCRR
ENDPOINT_NAME: pKi
Friendly reminder that pKi comes from taking -log10 of the concentration in mol/L.

### Prompt Look at this molecule and give its reported pKi. `O=C1CCCC(=O)N1CCCCN1CCN(c2cccc(C(F)(F)F)c2)CC1`
### Response 8.52

### Prompt Look at this molecule and give its reported pKi. O=C1C2=C(CCCC2)C(=O)N1C1CCC(N2CCN(c3cccc(C(F)(F)F)c3)CC2)CC1 (stereo not given)
### Response 9.52

### Prompt Look at this molecule and give its reported pKi. O=C1C2CC=CCC2C(=O)N1CCCCN1CCN(c2cccc(C(F)(F)F)c2)CC1 (cis isomer)
### Response 7.47

### Prompt Look at this molecule and give its reported pKi. CC1C(=O)N(CCCCN2CCN(c3cccc(C(F)(F)F)c3)CC2)C(=O)C1C (stereo not given)
### Response 8.66

### Prompt Look at this molecule and give its reported pKi. `O=C1C2=C(CCCC2)C(=O)N1CCCCN1CCN(c2cccc(C(F)(F)F)c2)CC1`
### Response 8.23

Hey, just so you know, these numbers are from ChEMBL document CHEMBL1139831.
